These entries and their values trace back to the supplement of paper PMC4466140.

assay system: SpBzz1-D1
method notes: SPOT peptide array binding signal intensity (averaged, normalized) (arbitrary units (background-subtracted, floor 0; scale differs between SH3 domains)); higher = stronger binding of the SH3 domain to the peptide
SPOT peptide array binding signal intensity below 200 gives label 0; SPOT peptide array binding signal intensity at or above it gives label 1.

Sample answers from the record:
> print(dat)
            binder  label.class
1  RSVKRPRRAPRPVVS      label 1
2  RSLRKRPTSPSISGS      label 1

Check this binder for SPOT peptide array binding signal intensity at or above 200: `KRRTSLFPWLHKPGI`
label 0

Check this binder for SPOT peptide array binding signal intensity at or above 200: `TSIEIPKRSPLRFTS`
label 0
